Test system: SW-620
Method Description: NCI tumour cell line growth inhibition, 48 h
Active and inactive are the calls of the source. No stated cut-off is given here; in the data, active = GI50 up to about 1.1 µM and inactive = higher.
Value Kind: GI50

> print(dat)
                                    compound  value.kind               result
 1  COc1c(OC)c(OC)c2c(=O)cc(-c3ccc(OC(C)C)cc3)oc2c1OC        GI50   > 44 µM (inactive)
 2  Cc1c2cc[n+](C)cc2c(COC2OC(CO)C(O)C2O)c2c3ccccc3n(C)c12 (stereo unspecified)        GI50  > 100 µM (inactive)
 3              Cc1ccc(-[n+]2cc([O-])on2)cc1        GI50  > 100 µM (inactive)
 4  Cc1ccccc1-n1c(N)c(-c2nc3ccccc3[nH]2)sc1=S        GI50   31.1 µM (inactive)
 5  Cn1nc(S(N)(=O)=O)s/c1=N/S(=O)(=O)c1ccc(N)cc1        GI50  > 100 µM (inactive)
 6  CC1=N[C@@](C)(C2CC3C=CC2C3=O)COC1=O (stereo partly specified)        GI50  > 100 µM (inactive)
 7  Cc1ncc2c(=O)c3c(oc2n1)c1ccccc1n3Cc1ccccc1        GI50  > 100 µM (inactive)
 8                 CNC(=O)OCc1nc(SC)n(C)c1CO        GI50  > 100 µM (inactive)
 9   O=c1[nH]c(=O)n(CCOc2ccccc2)cc1Nc1ccccc1        GI50  > 100 µM (inactive)
10  CC(C)OP(=O)(OC(C)C)C(C(C)C)N(C)/C(N)=N\C1=NC(C(F)(F)F)(C(F)(F)F)N=C(C(C(F)(F)F)C(F)(F)F)O1 (stereo unspecified)        GI50   2.28 µM (inactive)
11  O=C(CNc1ccccc1[N+](=O)[O-])Nn1cnc2ccc(S(=O)(=O)Nc3ccccc3[N+](=O)[O-])cc2c1=O        GI50  > 100 µM (inactive)
12                    O=c1c2ccccc2sc2ccccc12        GI50  > 100 µM (inactive)
13  Cc1ccc(Nc2ccc(Nc3ccc(C)cc3)c3c2C(=O)c2c(O)ccc(O)c2C3=O)cc1        GI50  > 100 µM (inactive)
14         COC(=O)c1ccc(Cc2ccc(C(=O)OC)o2)o1        GI50  > 378 µM (inactive)
15  c1ccc2c(c1)c1ccccc1n2Cn1c2ccccc2c2ccccc21        GI50  > 100 µM (inactive)
16  CC(C)(Oc1ccc2c(=O)cc(-c3ccccc3)oc2c1)C(=O)Nc1c(Cl)cccc1Cl        GI50  > 100 µM (inactive)
17  CC(=O)C1(O)CC2(c3ccccc3)C(=O)C1(c1ccccc1)C(c1ccccc1)=C2c1ccccc1 (stereo unspecified)        GI50  > 100 µM (inactive)
18  Nc1nc(Cl)nc2c1ncn2C1CCC(COP(=O)(O)OP(=O)(O)OP(=O)(O)O)O1 (stereo unspecified)        GI50   32.4 µM (inactive)
19  O=C1CC2(CCC(O)(c3ccccc3)C(C(=O)c3ccccc3)C2)C(=O)c2ccccc2N1 (stereo unspecified)        GI50  > 100 µM (inactive)
20                CN(/N=C/c1ccccn1)C1=NCCCN1        GI50  > 100 µM (inactive)
21  C(=N\Nc1nnc(-c2nnc(N/N=C/c3ccccc3)o2)o1)/c1ccccc1        GI50   > 10 µM (inactive)
